Measured pIC50 by item
Target: NR1/NR2A (Rattus norvegicus, UniProt P35439+Q00959)
Sequence (Q00959 23-1464, other chains not shown): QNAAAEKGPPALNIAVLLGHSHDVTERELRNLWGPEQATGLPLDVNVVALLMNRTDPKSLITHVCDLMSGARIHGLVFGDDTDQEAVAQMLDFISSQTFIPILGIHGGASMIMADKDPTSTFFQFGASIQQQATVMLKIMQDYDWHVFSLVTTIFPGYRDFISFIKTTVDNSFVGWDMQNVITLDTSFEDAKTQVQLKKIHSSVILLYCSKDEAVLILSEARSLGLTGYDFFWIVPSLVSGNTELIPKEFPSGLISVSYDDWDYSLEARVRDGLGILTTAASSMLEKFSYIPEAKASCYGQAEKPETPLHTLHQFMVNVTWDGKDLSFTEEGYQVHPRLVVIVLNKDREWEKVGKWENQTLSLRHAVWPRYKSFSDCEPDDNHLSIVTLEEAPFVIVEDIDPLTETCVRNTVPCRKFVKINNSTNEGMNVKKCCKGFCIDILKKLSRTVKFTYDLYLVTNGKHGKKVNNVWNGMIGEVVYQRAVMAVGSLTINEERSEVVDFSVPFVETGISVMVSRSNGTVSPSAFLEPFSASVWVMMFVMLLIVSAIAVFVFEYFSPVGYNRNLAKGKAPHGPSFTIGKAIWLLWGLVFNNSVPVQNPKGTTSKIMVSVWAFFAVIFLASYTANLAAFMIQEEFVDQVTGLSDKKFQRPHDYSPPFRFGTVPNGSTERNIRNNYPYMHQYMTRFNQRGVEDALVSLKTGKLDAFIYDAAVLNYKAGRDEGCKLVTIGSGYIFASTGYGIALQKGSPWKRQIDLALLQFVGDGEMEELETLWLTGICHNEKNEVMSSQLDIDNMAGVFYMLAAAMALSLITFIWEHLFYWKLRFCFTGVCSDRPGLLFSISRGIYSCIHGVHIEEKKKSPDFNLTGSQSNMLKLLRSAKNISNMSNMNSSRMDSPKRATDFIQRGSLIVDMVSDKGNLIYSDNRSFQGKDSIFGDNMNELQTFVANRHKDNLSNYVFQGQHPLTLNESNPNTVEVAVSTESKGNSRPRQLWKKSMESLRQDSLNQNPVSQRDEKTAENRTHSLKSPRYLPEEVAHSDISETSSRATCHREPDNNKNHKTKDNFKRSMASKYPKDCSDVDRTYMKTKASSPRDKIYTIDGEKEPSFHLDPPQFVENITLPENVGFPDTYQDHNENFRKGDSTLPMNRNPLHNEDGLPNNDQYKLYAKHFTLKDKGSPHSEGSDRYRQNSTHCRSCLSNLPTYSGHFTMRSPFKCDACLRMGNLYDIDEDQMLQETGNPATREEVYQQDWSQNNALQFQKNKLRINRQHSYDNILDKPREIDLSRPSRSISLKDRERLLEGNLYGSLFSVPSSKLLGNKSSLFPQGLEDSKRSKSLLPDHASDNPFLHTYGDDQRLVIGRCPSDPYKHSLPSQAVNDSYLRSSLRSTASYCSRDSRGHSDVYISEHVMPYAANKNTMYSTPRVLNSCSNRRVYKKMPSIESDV
Assay: Two electrode voltage clamp, Xenopus oocytes expressing recombinant NR1/NR2A
Type: cell-based
Conditions: logistic fit, minimum forced to 0; read-out: 2A IC50
Scale explanation: pIC50 corresponds to minus log10 of a concentration expressed in moles per litre.

Solved cases below.
> print(dat)
                                   compound  result.number
1  CCN(CC)C(=S)Oc1ccc(C(=O)Nc2cccc3ccccc23)cc1           2.86
2    O=C(O)c1ccc(C(=O)Nc2cccc3cc[nH]c23)cc1           3.61
3  O=C(O)CCC(=O)N1N=C(c2c(-c3ccccc3)c3cc(Br)ccc3[nH]c2=O)CC1c1ccc(Br)cc1 (stereo not shown)           4.11
4  O=C(O)CCC(=O)N1N=C(c2c(-c3ccccc3)c3cc(Cl)ccc3[nH]c2=O)CC1c1cccc(Br)c1 (stereo not shown)           4.62
5  CCN(CC)C(=O)c1ccc(C(=O)Nc2cccc3cc[nH]c23)cc1           3.30

In the following, a different compound is considered.
## Task Item Cc1ccc2[nH]c(=O)c(C3=NN(C(=O)CCC(=O)O)C(c4ccc(Br)cc4)C3)c(-c3ccccc3)c2c1 (stereo not shown) has what recorded pIC50?
## Result 3.66
